- measurement_target: T1, TBD-1 wt (anti-TROP2 Fab, hRS7)
- T1 construct: non-mutated Fab
- method_description: competition ELISA, Fab on captured TROP2
pIC50: −log10 of the molar value.
value_type: pIC50

// worked examples, pIC50 included
>>> numeric_readout("IDFCRVYDWPVCSL (mask peptide for the TROP2 Fab) [Peptide-53]")
5.05
>>> numeric_readout("VDFCYQYAWPVCSTGD (mask peptide for the TROP2 Fab) [Peptide-52]")
4.84

P: VDFCYQYGWPICSRLY (mask peptide for the TROP2 Fab) [Peptide-47]
Q: IDFCYRYGWPVCQT (mask peptide for the TROP2 Fab) [Peptide-57]
// compare measured pIC50, left P , right Q , return larger Write down the label of the entry you select.
P

Numbers sourced from patent US20230357429A1.
